The measurements presented in this section are drawn from ChEMBL document CHEMBL6178015.

Species on record: Homo sapiens
Assay: Selectivity index, ratio of IC50 for inhibition of human CES1A to IC50 for inhibition of human CES2A
measurement_label: Ratio IC50
// return a plain number; no unit text

Please review the following examples before continuing.
given_smiles | Ratio IC50
CCCCCCCCC(=O)c1cccc2oc(-c3cc(OC)ccc3OC(=O)N3CCCC3)cc12 | 59
CCCCCCCCC(=O)c1cccc2oc(-c3cc(OC)ccc3OC(=O)N3CCOCC3)cc12 | 53.9
CCCCCCC(=O)c1cccc2oc(-c3cc(OC)ccc3OC(=O)N3CCCC3)cc12 | 22.7

Task item: For the compound CCCCCCCCC(=O)c1cccc2oc(-c3cc(OC)ccc3OC(=O)N(C)CC)cc12 , give its measured Ratio IC50 value.
Reply: 6.4

Task item: For the compound CCCCCCC(=O)c1cccc2oc(-c3cc(OC)ccc3OC(=O)N(C)C)cc12 , give its measured Ratio IC50 value.
Reply: 44.8

Task item: For the compound CCCCCCCCC(=O)c1cccc2oc(-c3cc(OC)ccc3OC(=O)N(C)C)cc12 , give its measured Ratio IC50 value.
Reply: 1260
